The reported measurements were obtained from patent US20200131144A1.

- target-under-test: LXRα full length (FL) (Homo sapiens)
- Construct: the full length (FL) proteins of LXRα (amino acids 1-447); NP005684
- Sequence (Q13133 1-447): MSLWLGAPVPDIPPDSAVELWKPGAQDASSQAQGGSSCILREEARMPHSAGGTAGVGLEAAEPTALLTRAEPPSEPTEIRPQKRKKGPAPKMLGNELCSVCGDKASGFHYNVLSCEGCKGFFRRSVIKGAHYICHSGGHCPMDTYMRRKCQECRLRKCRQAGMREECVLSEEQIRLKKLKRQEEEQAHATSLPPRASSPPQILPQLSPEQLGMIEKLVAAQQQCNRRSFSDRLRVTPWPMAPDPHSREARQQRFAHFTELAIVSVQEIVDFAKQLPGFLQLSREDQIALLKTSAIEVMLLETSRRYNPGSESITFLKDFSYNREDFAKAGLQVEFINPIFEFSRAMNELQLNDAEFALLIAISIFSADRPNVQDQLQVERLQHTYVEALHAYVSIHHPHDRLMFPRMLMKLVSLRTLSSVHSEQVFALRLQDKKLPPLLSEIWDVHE
- assay-notes: LXR Gal4 reporter transient transfection assay, mammalian two-hybrid, FL-M2H Gal4α
- stated-conditions: HEK293 cells; inverse agonist unless *
reported-endpoint: EC50

{"compound": "Cc1ccc2c(F)cccc2c1C(=O)N(Cc1ccc(-c2cccc(C(C)(C)C(=O)O)c2)cc1)Cc1ccc(C(F)(F)F)o1 [27/12]", "result": "< 100 nM"}
{"compound": "Cc1nc2cccnc2c(C(=O)N(Cc2ccc(-c3cccc(C4(C(=O)O)CC4)c3)cc2)Cc2ccc(C(F)(F)F)o2)c1C [27/112]", "result": "< 100 nM"}
{"compound": "Cc1ccc2ccccc2c1C(=O)N(Cc1ccc(-c2cccc(C(C)(O)C(=O)O)c2)cc1)Cc1ccc(C(F)(F)F)o1 (centres unmarked) [27/10]", "result": "< 100 nM"}
{"compound": "Cc1ccc2ccccc2c1C(=O)N(Cc1ccc(-c2cccc(C(C)(C)c3noc(=O)[nH]3)c2)cc1)Cc1ccc(C(F)(F)F)o1 [Example 29]", "result": "< 100 nM"}
{"compound": "Cc1cc(C)c(CN(Cc2ccc(-c3cccc(S(=O)(=O)CC(=O)NS(C)(=O)=O)c3)cc2)Cc2ccc(C(F)(F)F)o2)c(C)c1 [Example 2]", "result": "1000 to 10000 nM"}
{"compound": "COc1cc(-c2cccc(C(C)(C)C(=O)O)c2)ncc1CN(Cc1ccc(C(F)(F)F)o1)C(=O)c1c(C)ccc2ccccc12 [27/85]", "result": "100 to 1000 nM"}
{"compound": "Cc1ccc2ccccc2c1C(=O)N(Cc1ccc(-c2cccc(C(C)(C)C(=O)O)c2)cc1)Cc1ccc(C(F)F)o1 [27/36]", "result": "< 100 nM"}
{"compound": "Cc1ccc2ccccc2c1C(=O)N(CCc1cccc(Br)c1)Cc1ccc(-c2cccc(C(C)(C)C(=O)O)c2)cc1 [27/30]", "result": "100 to 1000 nM"}
{"compound": "Cc1cc(C)c(C(=O)N(Cc2ccc(-c3cc(F)c(CO)c(S(=O)(=O)CC(=O)O)c3)cc2)Cc2ccc(C(F)(F)F)o2)c(C)c1 [22/13]", "result": "100 to 1000 nM"}
{"compound": "Cc1nc2ccccn2c1C(=O)N(Cc1ccc(-c2cccc(C(C)(C)C(=O)O)c2)cc1)Cc1ccc(C(F)(F)F)o1 [27/118]", "result": "100 to 1000 nM"}
{"compound": "CC(C)(C(=O)O)c1cccc(-c2ccc(CN(Cc3ccc(C(F)(F)F)o3)C(=O)c3c4ccccc4nc4ccccc34)cc2)c1 [27/31]", "result": "< 100 nM"}
{"compound": "Cc1ccc2ccccc2c1C(=O)N(Cc1ccc(-c2cccc([C@H](C)C(=O)O)c2)cc1)Cc1cccc(C#N)c1 [27/84]", "result": "< 100 nM"}
{"compound": "COc1cc(-c2cccc(C(C)(C)C(=O)O)c2)ccc1CN(Cc1ccc(C(F)(F)F)o1)C(=O)c1c(C)c(C)nc2ccccc12 [27/104]", "result": "< 100 nM"}
{"compound": "Cc1ccc2ccccc2c1C(=O)N(Cc1ccc(-c2cccc([C@@H](C)C(=O)O)c2)cc1)Cc1ccc(C(F)(F)F)o1 [10/5]", "result": "< 100 nM"}
